# Test system: HIV-1/MN
# Protocol Notes: Anti-HIV assay (MTT, protection from cytopathic effect), pre- or post-infection, HIV-1/MN; note: key: ++++: significant and reproducible inhibition of cytopathic effect; +++: significant and reproducible inhibition of cytopathic effect; +: noticeable but minimal protection; ---: no protective effect was observed; --: no protective effect was observed; -: no protection was observed but some changes in the cell culture occurred
# Format: cell-based
# Test Settings: HIV-1/MN, post-infection
Endpoint Name: MN Post-Infection

>>> print(df.to_string())
                                   molecule  measured_result
0  CC12CC3(C)CC(O)(C1)CC(O)(C2)C3 [Compound 2, 1,3-dihydroxy-5,7-dimethyladamantane]              +++
1                  O=C1C2CC3CC(C2)C(=O)C1C3                -
2  O=C(O)CNC1C2CC3CC(C2)CC1C3 (centres unmarked)              +++
3  C[N+](C)(C)CCC[N+](C)(C)C1C2CC3C4CC5CC3C1C(C5)C4C2 (centres unmarked)              +++
4  OC12CC3(O)CC(O)(C1)CC(O)(C2)C3 [Compound 1, 1,3,5,7-tetrahydroxyadamantane]              +++
